This collection of values is drawn from PubChem BioAssay (NCI).

Could you please report measured TGI for the items listed next?
test system: HT29 colon; assay: NCI tumour cell line growth inhibition, 48 h

The compound listed as `Cc1cc(N(CCC#N)CCC#N)ccc1/C(N=Nc1ccc(Cl)cc1)=N\NC(=O)c1cc(Cl)ccc1O` has a reported TGI of > 100 µM

The compound listed as OC(c1cccc(-n2ccc(C(F)(F)F)n2)c1)c1cnccc1NC1CCCCCC1 (stereo unspecified) has a reported TGI of 4.33 µM

The compound listed as `FC(F)(F)Oc1cccc(-c2cnc3ccc(-c4ccncc4)nn23)c1` has a reported TGI of > 100 µM

The compound listed as `NCCNc1c2c(c(NCCN)c3c(CO)c[nH]c13)C(=O)c1ccccc1C2=O` has a reported TGI of > 100 µM

The compound listed as CC(NS(=O)(=O)c1ccc([N+](=O)[O-])cc1)C(=O)O (stereo unspecified) has a reported TGI of > 100 µM

The compound listed as `O=C[C@@H](CO)O[C@H](C=O)c1c[nH]c(=O)[nH]c1=O` has a reported TGI of 595 µM
